Test: molar heat capacity at saturation pressure
Details: 391.4 K; Liquid; Large sample (1 g) DSC
Measured molar heat capacity by item

COMPOUND	UNIT DESCRIPTOR	molar heat capacity
CC(C)Cc1ccccc1 [(2-methylpropyl)benzene]	J/K/mol	289.1
CCCCc1ccccc1 [butylbenzene]	J/K/mol	288
CC(C)c1ccccc1 [isopropylbenzene]	J/K/mol	255.2
CCC(C)c1ccccc1 (stereo unspecified) [(1-methylpropyl)benzene]	J/K/mol	287.3
CCCCCCc1ccccc1 [hexylbenzene]	J/K/mol	359.1
CCCc1ccccc1 [propylbenzene]	J/K/mol	252
CCc1ccccc1 [ethylbenzene]	J/K/mol	221.7
CC(C)(C)c1ccccc1 [(1,1-dimethylethyl)benzene]	J/K/mol	288.8
CCCCCCCc1ccccc1 [heptylbenzene]	J/K/mol	389.9
Cc1cccc(C)c1 [1,3-dimethylbenzene]	J/K/mol	217.4
CCCCCCCCCCCCCCCCc1ccccc1 [hexadecylbenzene]	J/K/mol	710

* * *

Experiment: molar heat capacity at saturation pressure
Settings: 371.6 K; Liquid; Large sample (1 g) DSC

COMPOUND	UNIT DESCRIPTOR	molar heat capacity
CCCCCCc1ccccc1	J/K/mol	347.9
CCC(C)c1ccccc1 (stereo unspecified)	J/K/mol	277.5
CCc1ccccc1	J/K/mol	213.6
CC(C)c1ccccc1	J/K/mol	246.7
Cc1cccc(C)c1	J/K/mol	209.4
CCCCCCCc1ccccc1	J/K/mol	377.2
CCCCCCCCCCCCCCCCc1ccccc1	J/K/mol	683.3
CC(C)Cc1ccccc1	J/K/mol	278.6
CCCCc1ccccc1	J/K/mol	277.6
CCCc1ccccc1	J/K/mol	244.6
CC(C)(C)c1ccccc1	J/K/mol	278.4

* * *

Test: molar heat capacity at saturation pressure
Conditions: 401.3 K; Liquid; Large sample (1 g) DSC
± gives the expanded uncertainty stated by the source.

COMPOUND	molar heat capacity
Cc1cccc(C)c1	221.7 ± 4.4 J/K/mol
CCC(C)c1ccccc1 (centres undefined)	292.1 ± 5.8 J/K/mol
CC(C)c1ccccc1	259.5 ± 5.2 J/K/mol
CCCCCCCc1ccccc1	396.5 ± 7.9 J/K/mol
CCCCc1ccccc1	293.9 ± 5.9 J/K/mol
CC(C)(C)c1ccccc1	293.5 ± 5.9 J/K/mol
CCCCCCCCCCCCCCCCc1ccccc1	721.1 ± 14 J/K/mol
CC(C)Cc1ccccc1	293.8 ± 5.9 J/K/mol
CCCCCCc1ccccc1	366.1 ± 7.3 J/K/mol

* * *

Test: molar heat capacity at saturation pressure
Details: 342.1 K; Liquid; Large sample (1 g) DSC
// values below are reported molar heat capacity
MEASURED PARAMETER: molar heat capacity (J/K/mol)

MOLECULE	MEASURED PARAMETER	UNIT DESCRIPTOR	OBSERVED MEASUREMENT
CC(C)(C)c1ccccc1 [(1,1-dimethylethyl)benzene]	molar heat capacity	J/K/mol	263.1
CCCc1ccccc1 [propylbenzene]	molar heat capacity	J/K/mol	231.4
CCCCc1ccccc1 [butylbenzene]	molar heat capacity	J/K/mol	263
CCCCCCc1ccccc1 [hexylbenzene]	molar heat capacity	J/K/mol	328.8
CC(C)Cc1ccccc1 [(2-methylpropyl)benzene]	molar heat capacity	J/K/mol	263.5
CCCCCCCCCCCCCCCCc1ccccc1 [hexadecylbenzene]	molar heat capacity	J/K/mol	651.3
CC(C)c1ccccc1 [isopropylbenzene]	molar heat capacity	J/K/mol	234.2
CCC(C)c1ccccc1 (stereo unspecified) [(1-methylpropyl)benzene]	molar heat capacity	J/K/mol	262.6
Cc1cccc(C)c1 [1,3-dimethylbenzene]	molar heat capacity	J/K/mol	197.6
CCCCCCCc1ccccc1 [heptylbenzene]	molar heat capacity	J/K/mol	359.6
CCc1ccccc1 [ethylbenzene]	molar heat capacity	J/K/mol	202.4

* * *

# reported molar heat capacity; entries follow
Test: molar heat capacity at saturation pressure
Conditions: 354.9 K; Liquid; Large sample (1 g) DSC
± gives the expanded uncertainty stated by the source.

COMPOUND	molar heat capacity
CCCCc1ccccc1	267.8 ± 5.4 J/K/mol
CCCc1ccccc1	235.8 ± 4.7 J/K/mol
CC(C)c1ccccc1	238.5 ± 4.8 J/K/mol
CCc1ccccc1	205.9 ± 4.1 J/K/mol
CCCCCCCc1ccccc1	364.9 ± 7.3 J/K/mol
CC(C)Cc1ccccc1	268.8 ± 5.4 J/K/mol
Cc1cccc(C)c1	201.7 ± 4 J/K/mol
CC(C)(C)c1ccccc1	268.3 ± 5.4 J/K/mol
CCCCCCCCCCCCCCCCc1ccccc1	662 ± 13 J/K/mol
CCCCCCc1ccccc1	334.1 ± 6.7 J/K/mol
CCC(C)c1ccccc1 (stereo unspecified)	267.9 ± 5.4 J/K/mol

* * *

Experiment: molar heat capacity at saturation pressure
Conditions: 381.5 K; Liquid; Large sample (1 g) DSC
Readings of molar heat capacity for the listed compounds

COMPOUND	molar heat capacity, J/K/mol
CCCCCCc1ccccc1	353.8
CCC(C)c1ccccc1 (stereo unspecified)	282.4
CCc1ccccc1	218
CC(C)c1ccccc1	251.1
CCCCCCCCCCCCCCCCc1ccccc1	695.3
CC(C)Cc1ccccc1	283
CC(C)(C)c1ccccc1	283
Cc1cccc(C)c1	213.6
CCCc1ccccc1	249.3
CCCCc1ccccc1	283.9
CCCCCCCc1ccccc1	384.3

* * *

Assay: molar heat capacity at saturation pressure
Settings: 332.2 K; Liquid; Large sample (1 g) DSC
Label MET when molar heat capacity is at or above 300 J/K/mol; anything below gets NOT MET.

MOLECULE	GROUP LABEL
CCCCCCc1ccccc1 [hexylbenzene]	MET
CC(C)(C)c1ccccc1 [(1,1-dimethylethyl)benzene]	NOT MET
CCC(C)c1ccccc1 (stereo unspecified) [(1-methylpropyl)benzene]	NOT MET
CCc1ccccc1 [ethylbenzene]	NOT MET
CCCCCCCCCCCCCCCCc1ccccc1 [hexadecylbenzene]	MET
Cc1cccc(C)c1 [1,3-dimethylbenzene]	NOT MET

* * *

Entries and their molar heat capacity
Assay: molar heat capacity at saturation pressure
Settings: 361.8 K; Liquid; Large sample (1 g) DSC
MEASURED PARAMETER: molar heat capacity (J/K/mol)

COMPOUND	MEASURED PARAMETER	OBSERVED MEASUREMENT
CCCCc1ccccc1	molar heat capacity	272.9
CC(C)Cc1ccccc1	molar heat capacity	273.9
CC(C)(C)c1ccccc1	molar heat capacity	272.7
CC(C)c1ccccc1	molar heat capacity	242.5
CCc1ccccc1	molar heat capacity	210.2
Cc1cccc(C)c1	molar heat capacity	205.7
CCCCCCc1ccccc1	molar heat capacity	340.1
CCC(C)c1ccccc1 (stereo unspecified)	molar heat capacity	272.5
CCCCCCCCCCCCCCCCc1ccccc1	molar heat capacity	671.9
CCCCCCCc1ccccc1	molar heat capacity	371.5
CCCc1ccccc1	molar heat capacity	240.1

* * *

# molar heat capacity annotations
Assay: molar heat capacity at saturation pressure
Conditions: 332.2 K; Liquid; Large sample (1 g) DSC
Numbers after ± are expanded uncertainties.

STRUCTURE	molar heat capacity
CC(C)Cc1ccccc1	259.1 ± 5.2 J/K/mol
CCCCc1ccccc1	259.1 ± 5.2 J/K/mol
CCCCCCCc1ccccc1	353.6 ± 7.1 J/K/mol
CCCc1ccccc1	227.4 ± 4.5 J/K/mol
CC(C)c1ccccc1	229.1 ± 4.6 J/K/mol
